# System: Neuregulin-1 EGF-like domain
# assay_procedure: binders of neuregulin-1 EGF-like domain, primary screen, biochemical, small-molecule microarray, 635 nm fluorescence (AID 1081);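 further: binding of the protein to compounds printed on small-molecule microarray slides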
# test_parameters: small-molecule microarray binding, higher = more signal
Where composite z-score equals or exceeds 0.8, the correct label is condition met; where it does not, the label is condition not met.

compound	qualitative_label
CC(CO)N1C(=O)[C@@H]2C3C(=O)OCCC/C=C\[C@H]3OC23C=CCN(Cc2ccccc2)C(=O)[C@@H]13 (stereo partly specified)	condition not met
COCCCNC(=O)[C@@]1(C)c2ccccc2C(=O)N(Cc2cc(F)cc(C(F)(F)F)c2)[C@H]1c1ccc(CO)cc1	condition met
C=CCC(OC(C)=O)[C@@H]1[C@@H](N(Cc2cccc3ccccc23)C(=O)c2cccc3ccccc23)c2cc(OCCCO)ccc2N1C(=O)Cc1ccc(OC)cc1 (stereo partly specified)	condition not met
CCCCCN1CC=CC23O[C@@H]4/C=C\CCC(C)OC(=O)C4[C@H]2C(=O)N(CCO)[C@@H]3C1=O (stereo partly specified)	condition met
C=C(COC)/C(=C/C[C@H](OC(C)=O)c1ccc(CO)o1)c1cnc2ccccc2c1	condition met
C=C(CCCC)/C(=C/C[C@@H](OC(=O)c1ccncc1)c1ccc(OCCO)cc1)c1cnc2ccccc2c1	condition met

* * *

The following compounds are shown together with reported composite z-score values.
# assay_procedure: small-molecule microarray binders of probe aLefty2, primary screen, biochemical, biotinylated probe, 635/667 nm fluorescence (AID 1094);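 further: score merges spot fluorescence near 667 nm with spot signal-to-noise ratio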
# test_parameters: higher = more signal

compound	composite z-score
CC(CO)N1C(=O)[C@@H]2C3C(=O)OCCC/C=C\[C@H]3OC23C=CCN(Cc2ccccc2)C(=O)[C@@H]13 (stereo partly specified)	-0.16
COc1ccc(C#Cc2ccc3c(c2)[C@]2(C(=O)N3)[C@H](c3ccc(O)cc3)N3[C@H](c4ccccc4)[C@H](c4ccccc4)OC(=O)[C@H]3[C@@H]2C(=O)N2CCN(c3ncccn3)CC2)cc1	0.0708
CCOC(=O)C[C@H]1[C@H](OC(=O)c2ccc(C(=O)c3ccccc3)cc2)[C@@H](NC(=O)Cc2ccc(OC)cc2)c2cc(OCCCO)ccc2N1C(=O)Cc1ccc(OC)cc1	0.0673
CCCCCN1CC=CC23O[C@@H]4/C=C\CCC(C)OC(=O)C4[C@H]2C(=O)N(CCO)[C@@H]3C1=O (stereo partly specified)	-0.139
C=C(COC)C(=O)CC[C@H](OC(=O)c1cccnc1)c1cccc(OCCO)c1	0.649
COC(=O)C(CC#Cc1ccc2c(c1)[C@]1(C(=O)N2)[C@H](c2ccccc2OCCO)N2[C@H](c3ccccc3)[C@H](c3ccccc3)OC(=O)[C@H]2[C@@H]1C(=O)N1CCCCCCC1)C(=O)OC	1.93

* * *

# assay_procedure: cytotoxicity in IOSE-T80 ovarian epithelial cells, dose response, selectivity assay for PAX8 inhibitor project, cell-based, cherry-pick (AID 687032);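 further: cells exposed to compound for 96 h before reading; 0% = neutral control wells and -100% = 2 µM mitoxantrone kill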
# test_parameters: CellTiterGlo ATP luminescence, 96 h; series mostly up to 35 µM
Entries with a potency or affinity are not part of this list. Inconclusive results are not listed. Activity calls are given as the source filed them.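 How the source made its calls: active means fitted half-maximal concentration for viability loss no higher than twice the top valid dose, in every repeat run; inconclusive means repeat runs disagree, flat partial loss, or poor curve fit; inactive means the rest.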
quantity: outcome

1. CCOc1ccccc1NC(=O)c1nc(S(=O)(=O)Cc2ccccc2)ncc1Cl inactive
2. C[C@@H]1CCCCO[C@@H](CN(C)Cc2ccc(Cl)c(Cl)c2)[C@H](C)CN([C@@H](C)CO)C(=O)c2cc(NC(=O)CCC(F)(F)F)ccc2O1 inactive
3. C[C@H]1CCCCO[C@@H](CN(C)Cc2ccc(C(F)(F)F)cc2)[C@@H](C)CN([C@@H](C)CO)C(=O)c2cc(NC(=O)Nc3ccc4c(c3)OCO4)ccc2O1 inactive
4. O=C(O)c1ccc(N/N=C/c2ccc3nccnc3c2)cc1 inactive
5. O=C(CSc1nc2ccccc2s1)NCCOc1ccccc1 inactive
6. C[C@H](CO)N1C[C@H](C)[C@@H](CN(C)S(=O)(=O)c2ccc(F)cc2)OCCCC[C@H](C)Oc2ccc(NS(=O)(=O)c3ccc(Cl)cc3)cc2C1=O inactive
7. Cc1ccc(S(=O)(=O)Nc2ccc3c(c2)C(=O)N([C@@H](C)CO)C[C@@H](C)[C@@H](CN(C)C)OCCCC[C@H](C)O3)cc1 inactive
8. C[C@H]1CCCCO[C@@H](CN(C)S(=O)(=O)c2cccs2)[C@@H](C)CN([C@@H](C)CO)C(=O)c2cc(NS(=O)(=O)c3ccc(Cl)cc3)ccc2O1 inactive
9. O=C(Nc1ccc([N+](=O)[O-])cc1)Nc1nc(-c2ccc(Cl)s2)cs1 inactive
10. O=C(C[C@@H]1C[C@H]2c3cc(NS(=O)(=O)c4ccc(F)cc4)ccc3O[C@H]2[C@@H](CO)O1)NCc1ccc(Oc2ccccc2)cc1 inactive
11. C[C@H]1CN([C@@H](C)CO)S(=O)(=O)c2ccc(C#Cc3ccccc3F)cc2O[C@H]1CN(C)C(=O)c1ccc2c(c1)OCO2 inactive
12. O=C(N/N=C/c1ccsc1)c1cc(-c2cccs2)nc2ccccc12 inactive
13. C[C@@H]1CN([C@@H](C)CO)C(=O)Cc2cc(NS(=O)(=O)c3ccc(F)cc3)ccc2O[C@H]1CN(C)Cc1ccc(C(F)(F)F)cc1 inactive
14. COc1ccccc1C#Cc1ccc([C@H]2[C@H](C#N)N(C(=O)C3CCC3)[C@H]2CO)cc1 inactive
15. CCc1ccc(/C=C2\SC(=S)N(CCCC(=O)N(CCO)c3ccccc3)C2=O)cc1 inactive
16. C[C@@H]1CN([C@H](C)CO)S(=O)(=O)c2ccc(C#Cc3cccc(F)c3)cc2O[C@@H]1CN(C)C(=O)NC1CCCCC1 inactive

* * *

The following compounds are shown together with reported composite z-score values.
# System: Chordin-like protein 2 (CHRDL2)
# assay_procedure: CHRDL2 small-molecule binders, primary screen, biochemical, small-molecule microarray, 635 nm fluorescence (AID 1126);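 further: printed compound slides probed with Chrdl2 protein at 4 µg/mL for 1 h at 4 C; score merges 667 nm emission intensity with signal to noise over three replicate slides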
# test_parameters: small-molecule microarray binding, fluorescence 635 nm; higher = more signal
quantity: composite z-score

compound	quantity	value_observed
CC(CO)N1C(=O)[C@@H]2C3C(=O)OCCC/C=C\[C@H]3OC23C=CCN(Cc2ccccc2)C(=O)[C@@H]13 (some centres not stated)	composite z-score	-1.64
CCCCC(=C=CC[C@@H](O)c1ccc(OCCO)cc1)C[C@@H](O)c1cc(Cl)cc(Cl)c1O	composite z-score	-0.101
CO[C@H]1O[C@H](CO)[C@@H](OC(=O)CCc2ccccc2)[C@@H]2OC(=O)[C@H](Cc3ccccc3)C/C=C/C[C@@H](Cc3ccccc3)C(=O)O[C@@H]12	composite z-score	-0.845
C=C(C(=O)CC[C@@H](OC(C)=O)c1ccccc1OCCO)C(C)C	composite z-score	-0.38
COC(=O)C1=CC(CCCO)=CC(C2CC2)N(Cc2cc3c(cc2Br)OCO3)C=C1C(=O)OC (configuration not stated)	composite z-score	-0.547
CC(C)C[C@@H]1NC(=O)[C@@H]2C[C@H](C(=O)NCCCCCNC(=O)CS)[C@H](c3cccc(OCCO)c3)N2C1=O	composite z-score	0.767
COc1ccc([Si](C)(C)[C@@H]2[C@@H](CC(=O)N3CCC[C@H]3CO)O[C@]3(C(=O)N(Cc4ccc(N5CCC5=O)cc4)c4ccccc43)[C@H]2C)cc1	composite z-score	0.183

* * *

The following compounds are shown together with reported composite z-score values.
# measured_on: Fibroblast growth factor 2 (Homo sapiens) (UniProt P09038)
# Sequence (P09038 whole entry, looked up): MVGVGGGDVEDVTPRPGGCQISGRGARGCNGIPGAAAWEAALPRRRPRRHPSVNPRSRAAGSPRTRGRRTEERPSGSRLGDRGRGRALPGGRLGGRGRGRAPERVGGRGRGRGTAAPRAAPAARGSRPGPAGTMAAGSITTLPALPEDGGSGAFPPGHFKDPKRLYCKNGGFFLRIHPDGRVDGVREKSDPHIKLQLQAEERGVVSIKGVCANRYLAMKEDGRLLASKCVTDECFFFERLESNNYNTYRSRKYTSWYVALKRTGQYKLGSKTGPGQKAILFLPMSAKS
# assay_procedure: FGF2 binders on small-molecule microarrays, primary screen, biochemical, small-molecule microarray, 635/667 nm fluorescence (AID 1133)
# test_parameters: small-molecule microarray binding, FGF2, fluorescence 635/667; higher = more signal
quantity: composite z-score

1. O=C1O[C@H](c2ccccc2)[C@H](c2ccccc2)N2[C@H]1[C@@H](C(=O)Nc1nc3ccccc3s1)[C@]1(C(=O)Nc3ccc(C#CCCO)cc31)[C@H]2c1ccccc1OCCO 0.479
2. COCCCN1C(=O)[C@@]2(Cc3ccccc31)c1ccccc1C(=O)N(Cc1ccccc1Cl)[C@H]2c1ccc(CO)cc1 -0.0761
3. C=CCN1C(=O)[C@@]2(O[C@@H](CCO)[C@H]([Si](C)(C)c3ccc(OC)cc3)[C@H]2C)c2cc(N(C=O)c3ccccc3)ccc21 0.0479

* * *

# assay_procedure: non-specific cell cytotoxicity, dose response, cytotoxicity control for PAX8 inhibitor project, plate reader, dry powder samples (AID 743021)
# test_parameters: cell line, non-specific cytotoxicity counter-screen; series mostly up to 35 µM
Results with a measured potency or affinity are listed apart. Results filed as inconclusive are left out. The source made the active and inactive calls. The rule behind the calls is not given here.
quantity: activity change, negative = cytotoxicity

1) C[C@H]1CCCCO[C@@H](CN(C)S(=O)(=O)c2cccs2)[C@@H](C)CN([C@@H](C)CO)C(=O)c2cc(NS(=O)(=O)c3ccc(Cl)cc3)ccc2O1 inactive
2) Cc1noc(C)c1S(=O)(=O)N(C)C[C@H]1OCCCC[C@@H](C)Oc2ccc(NS(=O)(=O)c3ccc(Cl)cc3)cc2C(=O)N([C@@H](C)CO)C[C@H]1C inactive
3) C#CCN(C[C@@H]1[C@@H](OC(=O)Nc2cccs2)[C@@H](OC(=O)Nc2cccs2)Cn2c(=O)ccc(=O)n21)S(=O)(=O)c1ccc(C)cc1 inactive
